- Tested on: MDA-MB-435
- assayOverview: NCI tumour cell line growth inhibition, 48 h
Active and inactive are the calls of the source. Rule as the data show it: active = GI50 up to about 1.1 µM and inactive = higher.
Classes used: Yes (active), No (inactive)

{"columns": ["compound", "assignedCategory"],
 "data": [
  ["C[C@@H]1CCC2[C@@H](C)[C@@H](OCCO[C@H]3OC4O[C@@]5(C)CCC6[C@H](C)CCC([C@H]3C)[C@@]46OO5)OC3O[C@@]4(C)CCC1[C@]32OO4 (some centres not stated)", "Yes"],
  ["CSc1ncc2c(n1)-c1ccccc1OC2N1CCCCC1 (configuration not stated)", "No"],
  ["COc1ccc(OC)c2sc(N3C(=O)/C(=C/c4cccc(Oc5ccccc5)c4)N=C3c3ccccc3)nc12", "No"],
  ["CCOC(=O)C1C2C1C1C(C(=O)OCC)C21 (configuration not stated)", "No"],
  ["COc1cc([C@@H]2c3cc(O)c(OC)cc3C=C(C(N)=O)[C@H]2C(N)=O)ccc1O", "No"],
  ["Cc1ccc(S(=O)(=O)Nc2nnc(S(N)(=O)=O)s2)cc1", "No"],
  ["CC(=O)[C@@]1(O)CC[C@H]2[C@@H]3C[C@H](C)C4=CC(=O)CC[C@]4(C)[C@H]3[C@@H](O)C[C@@]21C", "No"],
  ["Cc1occc1/C(S)=N\\c1ccc(Cl)c(C(=O)OCC(F)(F)F)c1", "No"],
  ["CC(C)CC(NC(=O)C(Cc1ccccc1)NC(=O)[C@H]1CC[C@H](NC(=O)C(Cc2ccc(OC(C)(C)C)cc2)NC(=O)OC(C)(C)C)C1)C(N)=O (some centres not stated)", "No"],
  ["CC(C)Oc1cccc(N2C(Nc3ccccc3)=Nc3ccncc3S2(=O)=O)c1", "No"],
  ["Cc1c(/N=N/c2ccc([N+](=O)[O-])cc2)nc2scc(-c3ccccc3)n12", "No"],
  ["O=C1NC(Nc2ccccc2)=NC(C(F)(F)F)(C(F)(F)F)N1", "No"]
]}

###

- System: A549
- assayOverview: NCI tumour cell line growth inhibition, 48 h
The source made the active and inactive calls. Rule as the data show it: active = GI50 up to about 1.1 µM and inactive = higher.

{"columns": ["compound", "GI50"],
 "data": [
  ["CC(C)N1CCCOC(c2ccc([N+](=O)[O-])cc2)O1 (stereo not given)", "> 100 µM (inactive)"],
  ["Cc1ccc(C(=O)O)c(/C=C2\\Cc3ccc(C)cc3C2=O)c1", "91.2 µM (inactive)"],
  ["Oc1ccc(C2Oc3cc(O)cc4c3C2c2cc(O)cc3c2C(c2cc(O)cc5c2C4C(c2ccc(O)cc2)O5)C(c2ccc(O)cc2)O3)cc1 (stereo not given)", "> 25 µM (inactive)"],
  ["CC(=O)N[C@@H](Cc1ccc(O)cn1)C(=O)NCc1ccc2c(c1)OCO2", "> 100 µM (inactive)"],
  ["O=C1N/C(=N/N=C/C(O)C(O)C(O)C(O)CO)N/C1=C\\c1c[nH]c2ccccc12 (stereo not given)", "> 100 µM (inactive)"],
  ["C[C@H](CCCOS(C)(=O)=O)[C@H]1CC[C@H]2[C@@H]3CC[C@@H]4C[C@H](OS(C)(=O)=O)CC[C@]4(C)[C@H]3CC[C@]12C", "17 µM (inactive)"],
  ["CCOC(=O)c1cc(OC(=O)CC)c2c(OC)ccc(OC)c2c1", "> 100 µM (inactive)"],
  ["COc1c(CC(=O)c2ccccc2)c2ccccc2n1C(C)=O", "> 100 µM (inactive)"],
  ["CC(C)c1ccc(C(O)(C(=O)O)c2ccc(C(C)C)cc2)cc1", "33.1 µM (inactive)"],
  ["CCOC(=O)c1csc(NC(=O)CCN2CCCC2)n1", "> 100 µM (inactive)"]
]}
